Tested on: AdMSCs
Assay: ELISA of secreted inflammatory factors in culture media of AdMSCs
Assay type: cell-based, human
Conditions: LPS-stimulated AdMSC cultures, 24 h
endpoint: effect on IL6 level

# compound, observed_measurement
rows = [
    ("CC(=O)Nc1ccc(O)cc1 [paracetamol]", "significantly reduced"),
    ("CC(C(=O)O)c1cccc(C(=O)c2ccccc2)c1 (stereo not shown) [ketoprofen]", "stimulated"),
    ("C[C@]12C=CC(=O)C=C1CC[C@@H]1[C@@H]2[C@@H](O)C[C@@]2(C)[C@H]1CC[C@]2(O)C(=O)CO [prednisolone]", "significantly reduced"),
    ("O=C(O)Cc1ccccc1Nc1c(Cl)cccc1Cl [diclofenac]", "stimulated"),
]
